Where do the numbers come from? From the supplement of paper PMC7156485.

# System: HCC1569;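 also: TDF denotes transformed human dermal fibroblasts of mesenchymal origin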
# assay_procedure: cell number relative to DMSO (% of DMSO); higher = more cells (less growth inhibition / toxicity)
# condition_details: concentration: 10 µM; 24 h
Values of cell number greater than or equal to 100 map to y; values below map to n.

Below, 2 compounds whose answers are already recorded.
| compound | tested_target | cat |
| --- | --- | --- |
| N#CC(=Cc1ccc(O)c(O)c1)C(=O)NCc1ccccc1 | HCC1569 | n |
| C=CC(N)CCC(=O)O (racemic) | HCC1569 | n |

Query compound follows.
Confirm if cell number reported for the compound CC1C(=O)OC2C(O)C34C5CC(C(C)(C)C)C36C(OC(=O)C6O)OC4(C(=O)O5)C12O (centres undefined) [Ginkgolide B] is 100 or above.
y
